- system-under-test: Ubiquitin carboxyl-terminal hydrolase 28 (Homo sapiens) (UniProt Q96RU2)
- Sequence (Q96RU2 whole entry, looked up): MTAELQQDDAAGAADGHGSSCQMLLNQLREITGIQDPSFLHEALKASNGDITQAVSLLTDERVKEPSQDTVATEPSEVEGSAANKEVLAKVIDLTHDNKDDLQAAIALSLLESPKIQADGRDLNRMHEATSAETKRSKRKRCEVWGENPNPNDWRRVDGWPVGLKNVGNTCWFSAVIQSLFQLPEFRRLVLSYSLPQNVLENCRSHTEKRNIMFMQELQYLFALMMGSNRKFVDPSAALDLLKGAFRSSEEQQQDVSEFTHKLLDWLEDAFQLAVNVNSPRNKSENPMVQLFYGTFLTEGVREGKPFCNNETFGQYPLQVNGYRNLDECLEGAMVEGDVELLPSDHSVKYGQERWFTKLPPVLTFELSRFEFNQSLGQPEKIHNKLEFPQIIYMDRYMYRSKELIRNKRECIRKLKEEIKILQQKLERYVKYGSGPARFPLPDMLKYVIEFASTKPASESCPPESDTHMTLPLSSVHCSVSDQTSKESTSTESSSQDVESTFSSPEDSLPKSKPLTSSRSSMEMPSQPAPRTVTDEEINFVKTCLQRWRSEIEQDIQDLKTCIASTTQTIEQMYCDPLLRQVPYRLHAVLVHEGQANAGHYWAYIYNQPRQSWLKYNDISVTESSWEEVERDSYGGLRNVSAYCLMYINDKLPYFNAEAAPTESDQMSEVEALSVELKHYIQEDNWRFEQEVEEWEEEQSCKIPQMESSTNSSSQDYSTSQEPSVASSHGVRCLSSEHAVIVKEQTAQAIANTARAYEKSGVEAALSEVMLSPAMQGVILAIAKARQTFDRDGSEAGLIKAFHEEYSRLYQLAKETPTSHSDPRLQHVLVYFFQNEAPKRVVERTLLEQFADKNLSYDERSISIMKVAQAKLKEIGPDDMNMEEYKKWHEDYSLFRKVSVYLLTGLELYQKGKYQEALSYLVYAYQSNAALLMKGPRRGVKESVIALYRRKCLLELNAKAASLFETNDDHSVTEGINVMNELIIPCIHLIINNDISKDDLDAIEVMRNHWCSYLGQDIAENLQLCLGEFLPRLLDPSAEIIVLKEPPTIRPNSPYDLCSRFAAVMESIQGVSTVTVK
- test-summary: inhibitors of human USP28 deubiquitinase (AID 1645857)
- condition-notes: purified USP28, Ub-rhodamine cleavage fluorescence, 30 min; at 25 µM
The whole screen tested about 47,000 compounds, of which about 1,400 (3%) were called active. No stated cut-off is given here; in the data, active means inhibition above about 30%; inactive means the rest. The entries come from a sample that favours actives as a whole.
Respond only with the outcome that fits, drawn from y for active, n for inactive

[[record]]
molecule = "CC(Nc1nc2ccccc2nc1NS(=O)(=O)c1cc(Cl)ccc1Cl)c1ccccc1 (stereo not given)"
group_label = "n"

[[record]]
molecule = "Cc1c(-c2nn3c(-c4ccco4)nnc3s2)cccc1[N+](=O)[O-]"
group_label = "y"

[[record]]
molecule = "Cc1ccc(C(=O)Nc2nc3c(s2)CCC3C(=O)NCc2ccncc2)cc1 (stereo not given)"
group_label = "y"


Ask: Per the records of this test, what outcome belongs to Clc1ccc(C2NC3=NCN(Cc4ccco4)CN3c3nc4ccccc4n32)cc1 (stereo not given) ?
Reply: y

Ask: Call for entry `CCc1nc2ccc(C(=O)Nc3nc(-c4ccc5c(c4)CCN5C(=O)c4ccc(C)cc4)c(C)s3)cc2nc1CC` :
Reply: n

Ask: Can you look up the reported call for `C#CCOc1ccc2ccccc2c1CN1CCc2ccccc2C1` for me?
Reply: y

Ask: Recorded call for `CCn1cc(C(=O)OCC(=O)Nc2cc(F)ccc2F)c(=O)c2ccc(C)nc21` ?
Reply: n

Ask: How was `Cn1nc(C2CCN(Cc3ccc4c(c3)CC(C)(C)O4)CC2)c2nccnc21` classified in this test?
Reply: n

Ask: // outcome(item) with item = `O=C(O)c1cc(-c2ccc(-c3ccccc3F)o2)nc2ccc(F)cc12`
Reply: n

Ask: Per the records of this test, what outcome belongs to `CC(C)CN1[C@H]2CCN(C(=O)c3cnccn3)CC[C@@H]2Oc2ccccc2S1(=O)=O` ?
Reply: n

Ask: Please indicate how the test categorized `COc1ccc2[nH]c3c(NCCCN4CCOCC4)ncnc3c2c1` .
Reply: n

Ask: I would be grateful if you could indicate the recorded call for `O=S(=O)(c1ccc(Cl)cc1)N1CCc2nc[nH]c2C1` .
Reply: n

Ask: What call does the record list for `O=C(CCc1nnc2n(Cc3ccc(Cl)cc3)c(=O)c3ccccc3n12)NCCN1CCOCC1` ?
Reply: n

Ask: Could you please tell me the result logged for `Cc1oc(-c2cccc(Cl)c2)nc1Cn1c(=O)n(C(C)C)c(=O)c2ccccc21` in this assay?
Reply: n

Ask: For `CC(=O)c1ccc(N2CCN(CC(=O)c3c(N)n(Cc4ccccc4)c(=O)n(C)c3=O)CC2)cc1` , which call appears in the assay record?
Reply: n

Ask: Identify the outcome logged in this assay for the molecule shown: `Cn1cc(CCNC(=O)c2cc3ccccc3[nH]2)c2cccnc21`
Reply: y

Ask: Any idea what this test logged for `Cn1cc(CCNC(=O)Nc2cc(F)ccc2F)c2cccnc21` ?
Reply: y

Ask: Call for entry CCOc1ccccc1C1c2[nH]c3ccccc3c2C[C@H]2C(=O)N(CCCc3ccccc3)CC(=O)N12 (stereo not given in full) :
Reply: n

Ask: Would you mind telling me which call this test gave `C#CCOc1ccc(CN2CCc3nc(-c4cccnc4)[nH]c(=O)c3C2)cc1OC` ?
Reply: n

Ask: Which outcome was entered for the molecule C=C(CCC(C(=O)O)[C@H]1[C@H](O)C[C@@]2(C)C3=C(CC[C@]12C)[C@@]1(C)CC[C@H](OC(C)=O)C(C)(C)[C@@H]1CC3)C(C)C (stereo not given in full) in this test?
Reply: n

###

# maps each entry to its inhibition
- system-under-test: Ubiquitin carboxyl-terminal hydrolase 28 (Homo sapiens)
- test-summary: inhibitors of human USP28 deubiquitinase (AID 1645857)
- condition-notes: purified USP28, Ub-rhodamine cleavage fluorescence, 30 min; at 25 µM; active compounds read high
In all, about 47,000 compounds went through this assay and about 1,400 (3%) were called active. Only a selection was taken, and actives are over-represented in it overall.
Please state the figure in %; there is no need to write the unit.

Some solved cases for reference:
[[record]]
compound = "CCCCn1c(=O)c(CCC(=O)OCC(=O)Nc2ccc(C)c(Cl)c2)nc2ccccc21"
observed_property = "inhibition"
unit_spec = "%"
readout_number = -33.9

[[record]]
compound = "COc1ccccc1CNC(=O)c1c(O)c2cccnc2n(-c2ccccc2)c1=O"
observed_property = "inhibition"
unit_spec = "%"
readout_number = -16.9

[[record]]
compound = "CN1CCCN(C(=O)C2CCCCC2)CC1"
observed_property = "inhibition"
unit_spec = "%"
readout_number = -7.1


Ask: Record request: inhibition value, item `COc1cc(Cn2cnc3c([nH]c4ccc(Br)cc43)c2=O)cc(OC)c1`
Reply: 43.8

Ask: Would you mind telling me what inhibition value was observed for `CN(C)C(=O)CN1CCC2(CC1)CN(Cc1ccccn1)C(=O)CO2` ?
Reply: 8.76

Ask: Recorded inhibition for `O=C(Nc1nnc(-c2cccc([N+](=O)[O-])c2)o1)C1CCN(S(=O)(=O)c2ccc3c(c2)CCC3)CC1` , please?
Reply: 46.2

Ask: Recorded inhibition for `CN(Cc1cccnc1Oc1ccccc1)C(=O)c1cnccn1` , please?
Reply: -1.11

Ask: # input compound: `CCc1ccc(NC(=O)N2C[C@H]3C[C@H]4[C@](C2)(CN(Cc2cccnc2)S4(=O)=O)O3)cc1` ; wanted: its inhibition
Reply: 1.25

Ask: I would be grateful if you could share the reported inhibition for `CCOc1ccc2[nH]c3c(=O)n(Cc4cccnc4)cnc3c2c1` .
Reply: 13.7

Ask: I'd like to know its inhibition. The compound in question is CC(C)=CCC(O)C1=CC(=O)c2c(O)ccc(O)c2C1=O (stereo not given)
Reply: 93.4

Ask: For `Cc1cccc(C)c1NC(=O)c1nnn(-c2ccc3noc(-c4ccccc4)c3c2)c1C` , what is its reported inhibition?
Reply: 8.24

Ask: Name the recorded inhibition for Cc1cccc(NC(=O)c2cnn3c2NC2=C(C(=O)CCC2)C3c2ccccc2)c1 (stereo not given) .
Reply: -27.3

Ask: // inhibition lookup, key: `COCCn1ccc(-c2cc(C(=O)N3CCCN(C)CC3)c3ccccn23)n1`
Reply: -61

Ask: Recorded inhibition of `COc1ccccc1NC(=O)N1CCN(Cc2nc3ccccc3o2)CC1` , please.
Reply: -5.25

Ask: Please report the recorded inhibition for `CCOc1ccccc1NC(=O)Nc1cc(-c2nc3ccccc3o2)ccc1OC` .
Reply: 30.8

###

- system-under-test: Ubiquitin carboxyl-terminal hydrolase 28 (Homo sapiens)
- test-summary: inhibitors of human USP28 deubiquitinase (AID 1645857)
- condition-notes: purified USP28, Ub-rhodamine cleavage fluorescence, 30 min; at 25 µM
The campaign covered roughly 47,000 compounds. About 1,400 (3%) were called active. Cut-off read from the data, not from the text of the source: active = inhibition above about 30%; inactive = the rest. The sample as a whole holds a higher share of actives than the screen did.
Reply using exactly one outcome from active, inactive

Examples with answers:
[[record]]
compound = "O=C(c1ccccc1)N1CCC2(CC1)OCCCO2"
group_label = "inactive"

[[record]]
compound = "CCc1cccc(NC(=O)C2CCN(c3ccncc3)CC2)c1"
group_label = "inactive"


Ask: Which result was noted for this compound in the test: `O=c1[nH]oc(O)c1-c1ncc(C(F)(F)F)cc1Cl`
Reply: inactive

Ask: Would you mind telling me which call this test gave CC1CCc2c(cnc3c(C(=O)NCc4cccnc4)cnn23)C1 (configuration not stated) ?
Reply: inactive

Ask: Recorded call for `CC(=O)c1ccc(Cc2ncc(C(F)(F)F)cc2Cl)s1` ?
Reply: active

Ask: Tell me the assay call for `Brc1ccc2[nH]c3c(NCCCN4CCOCC4)ncnc3c2c1` please.
Reply: inactive

Ask: Which outcome was entered for the compound `Cc1cc(N)nc2c1c(C)nn2-c1ncc(C(F)(F)F)cc1Cl` in this test?
Reply: inactive

###

Reported inhibition values for a set of compounds
- system-under-test: Ubiquitin carboxyl-terminal hydrolase 28 (Homo sapiens)
- test-summary: inhibitors of human USP28 deubiquitinase (AID 1645857)
- condition-notes: purified USP28, Ub-rhodamine cleavage fluorescence, 30 min; at 25 µM; active compounds read high
The whole screen tested about 47,000 compounds, of which about 1,400 (3%) were called active. The list comes from a sample in which actives are over-represented; it also holds close analogues and randomly drawn compounds.
Write it as a number; the unit % goes unstated.

[[record]]
compound = "CC(=O)c1ccc(NC(=O)CCCn2nc([N+](=O)[O-])cc2C)cc1"
system_under_test = "Ubiquitin carboxyl-terminal hydrolase 28 (Homo sapiens)"
observed_property = "inhibition"
readout_number = 9.41

[[record]]
compound = "N#CC1=C(N)Oc2nc[nH]c(=O)c2C1c1cccc(F)c1 (centres undefined)"
system_under_test = "Ubiquitin carboxyl-terminal hydrolase 28 (Homo sapiens)"
observed_property = "inhibition"
readout_number = -2.3

[[record]]
compound = "O=C(COc1ccccc1)N1CCc2[nH]nc(-c3ccccc3)c2C1"
system_under_test = "Ubiquitin carboxyl-terminal hydrolase 28 (Homo sapiens)"
observed_property = "inhibition"
readout_number = 5.14


Here is another compound to look at.
Ask: I have this compound here, `Cc1cc(C(=O)CSc2nnc(-c3ccc(F)cc3)n2C)c(C)n1C` , and I need its recorded inhibition.
Reply: -21.9
